- Test system: Staphylococcus aureus
- EXPERIMENTAL_DETAILS: in vivo therapeutic activity on mice experimentally infected with Staphylococcus aureus
- Design: species or system male Swiss Cobs albino mice
- PARTICULARS: Staphylococcus aureus, sc, 168 h, Table 2, 2 LD50/mouse i.p., subcutaneous treatment 4 h after infection, 7 days, read-out: ED50 (dose effective in curing 50% of the infected mice)
Form field: ED50 (one value per entry).
Return type: number; implicit unit mg/kg.

Below, 2 molecules whose answers are already recorded.
{"MOLECULE": "O=C(CSc1cnccn1)NC1C(=O)N2C(C(=O)O)=C(CSc3c[n+]([O-])ccn3)CSC12 (stereo not drawn) [Compound 316]", "ED50 / mg/kg": 40}
{"MOLECULE": "NC(=O)c1cncc(SCC2=C(C(=O)O)N3C(=O)C(NC(=O)Cc4ccccc4)C3SC2)n1 (stereo not drawn) [Compound 311]", "ED50 / mg/kg": 17.5}

Kindly consider the entry below.
Query: I am curious: what ED50 value has been reported for O=C(Cc1ccccc1)NC1C(=O)N2C(C(=O)O)=C(CSc3cnccn3)CS[C@H]12 (stereo partly drawn) [Compound 308] ?
Response: 17.5
